Reference source: ChEMBL document CHEMBL1135512

measurement.description: Partition coefficient (logP)
Type: physicochemical
experimental.conditions: octanol/water; read-out: logP
Hi there, I'd appreciate the recorded logP for every entry that follows.
One number for each entry.

// worked examples, logP included
CN(C)CC1C2c3ccccc3C(c3ccccc32)C1CN(C)C (stereo in doubt; 5)
3.41
NC(=O)C1C2c3ccccc3C(c3ccccc32)C1C(N)=O (stereo not drawn)
0.86
O=C(NCc1ccccc1)C1=CC2c3ccccc3C1c1ccccc12
4.41
CN(C)CC1C2c3ccccc3C(c3ccccc32)C1CO (stereo not drawn)
2.82
CC1C2c3ccccc3C(c3ccccc32)C1C(=O)Nc1ccncc1 (stereo not drawn)
3.85
CCOC(=O)C1C2c3ccccc3C(c3ccccc32)C1N(C)C (stereo not drawn)
3.6
CC1C2c3ccccc3C(c3ccccc32)C1C(=O)/N=C/N(C)C (stereo not drawn)
3.26
CN(C)C(=O)C1=C(C(=O)N(C)C)C2c3ccccc3C1c1ccccc12
2.15

List logP for every entry below, keeping the order given.
1. CN(C)CC1C2c3ccccc3C(c3ccccc32)C1COC(=O)N(C)C (stereo not drawn)
2. CNCC1CC2c3ccccc3C1c1ccccc12 (stereo not drawn)
3. CC(CN1c2ccccc2Sc2ccccc21)N(C)C (stereo not drawn)
4. COC(=O)C1C2c3ccccc3C(c3ccccc32)C1C(=O)N(C)C (stereo not drawn)
5. CN(C)CC1=C(CN(C)C)C2c3ccccc3C1c1ccccc12

Solution:
2.99
3.66
3.86
2.47
3.34
